So I've got a bunch of compounds here, and I need their chromatographic logP values.
Assay: logP determination by HPLC on reverse-phase column (C 18), acidic range pH 2.3
Assay type: physicochemical
Details: reverse-phase HPLC column (C 18), HPLC, C 18 reverse-phase, 43° C.
Just the number, please, no unit attached.

Inquiry: Which chromatographic logP value is on record for Cn1cc(C(=O)Nc2ccccc2-c2ccc(/C=N\OCC3CC3)cc2)c(C(F)(F)F)n1 [Compound 4] ?
Reply text: 3.77

Inquiry: Which chromatographic logP value is on record for O=C(Nc1ccccc1-c1ccc(/C=N\OCC2CC2)cc1)c1cccnc1Cl [Compound 3] ?
Reply text: 3.57

Inquiry: Which chromatographic logP value is on record for C=CCO/N=C\c1ccc(-c2ccccc2NC(=O)c2sc(C)nc2C(F)(F)F)cc1 [Compound 5] ?
Reply text: 3.91

Inquiry: Which chromatographic logP value is on record for Cc1nc(C(F)(F)F)c(C(=O)Nc2ccccc2-c2ccc(/C=N\OCC3CC3)cc2)s1 [Compound 2] ?
Reply text: 4.16

Inquiry: Which chromatographic logP value is on record for C=CCO/N=C\c1ccc(-c2ccccc2NC(=O)c2cn(C)nc2C(F)(F)F)cc1 [Compound 11] ?
Reply text: 3.53

Inquiry: Which chromatographic logP value is on record for Cn1cc(C(=O)Nc2ccccc2-c2ccc(/C=N\OCC3CC3)cc2)c(C(F)F)n1 [Compound 7] ?
Reply text: 3.53

Inquiry: Which chromatographic logP value is on record for CC#CCO/N=C(/C)c1ccc(-c2ccccc2NC(=O)c2cn(C)nc2C(F)(F)F)cc1 [Compound 40] ?
Reply text: 3.67

Inquiry: Which chromatographic logP value is on record for C=CCO/N=C(/C)c1ccc(-c2ccccc2NC(=O)c2sc(C)nc2C(F)F)cc1 [Compound 15] ?
Reply text: 3.92

Inquiry: Which chromatographic logP value is on record for C#CCO/N=C(/C)c1ccc(-c2ccccc2NC(=O)c2sc(C)nc2C(F)F)cc1 [Compound 69] ?
Reply text: 3.45

Inquiry: Which chromatographic logP value is on record for C=CCO/N=C/c1ccc(-c2ccccc2NC(=O)c2sc(C)nc2C(F)F)cc1 [Compound 9] ?
Reply text: 3.65

Inquiry: Which chromatographic logP value is on record for CC1=C(C(=O)Nc2ccccc2-c2ccc(/C(C)=N\OCC3CC3)cc2)SCCO1 [Compound 22] ?
Reply text: 4.69

Inquiry: Which chromatographic logP value is on record for C=CCO/N=C\c1ccc(-c2ccccc2NC(=O)c2cn(C)nc2C(F)F)cc1 [Compound 10] ?
Reply text: 3.32

Inquiry: Which chromatographic logP value is on record for Cc1nc(C(F)F)c(C(=O)Nc2ccccc2-c2ccc(/C=N\OCC3CC3)cc2)s1 [Compound 8] ?
Reply text: 3.87

Inquiry: Which chromatographic logP value is on record for CC#CCO/N=C(/C)c1ccc(-c2ccccc2NC(=O)c2cn(C)nc2C)cc1 [Compound 55] ?
Reply text: 3.06

Inquiry: Which chromatographic logP value is on record for C#CCO/N=C(/C)c1ccc(-c2ccccc2NC(=O)c2cn(C)nc2C(F)F)cc1 [Compound 72] ?
Reply text: 3.14

Inquiry: Which chromatographic logP value is on record for C=CCO/N=C\c1ccc(-c2ccccc2NC(=O)c2cccnc2Cl)cc1 [Compound 12] ?
Reply text: 3.3

Inquiry: Which chromatographic logP value is on record for C=CCO/N=C\c1ccc(-c2ccccc2NC(=O)c2c(C)nn(C)c2F)cc1 [Compound 6] ?
Reply text: 3.47
